src = patent US6746623B2

# γ at 0.1 wt %, 20 b/s annotations
assay: Dynamic surface tension of aqueous solutions, maximum bubble pressure method; assay type: physicochemical; conditions: 0.1 wt % in distilled water, 20 b/s
Your reply should be a number followed by the unit it is expressed in.

// below: answered molecules
INSERT INTO results (molecule, measured_quantity, test_result) VALUES
  ('CCCCOCC(O)CN(CCN(CC(O)COCCCC)CC(O)COCCCC)CC(O)COCCCC (stereo not drawn) [EDA/4 BGE]', 'γ at 0.1 wt %, 20 b/s', '58.4 dyne/cm'),
  ('CC(C)COCC(O)CNCCN(CC(O)COCC(C)C)CC(O)COCC(C)C (stereo not drawn) [EDA/3 IBGE]', 'γ at 0.1 wt %, 20 b/s', '50.3 dyne/cm'),
  ('CCCCOCC(O)CNC1CCC(CC2CCC(N(CC(O)COCCCC)CC(O)COCCCC)CC2)CC1 (stereo not drawn) [PACM/3 BGE]', 'γ at 0.1 wt %, 20 b/s', '71.8 dyne/cm');

Problem: So what does the record say about γ at 0.1 wt %, 20 b/s for CCCCOCC(O)CNCCN (racemic) [EDA/1 BGE] ?
Result: 59.9 dyne/cm

Problem: So what does the record say about γ at 0.1 wt %, 20 b/s for CC(C)COCC(O)CN(CCN(CC(O)COCC(C)C)CC(O)COCC(C)C)CC(O)COCC(C)C (stereo not drawn) [EDA/4 IBGE] ?
Result: 65.5 dyne/cm
